Every entry's value here was drawn from paper PMC5618406.

- run_description: Antifouling assay against barnacle larvae
- Format: in vivo
- assay_setup: Amphibalanus amphitrite (barnacle), in vivo, barnacle larvae, Table 4; read-out: LC50
Entries and their LC50
Reply numerically in µM, unit not repeated.

>>> number("CC[C@@H]1[C@@H]2[C@H]3OC(C=C=CBr)C[C@H]3O[C@@]23O[C@@H]1C[C@@H]3Br (relative stereo)")
17
>>> number("Cc1cc(O)c([C@]2(C)CC[C@@H]3C[C@@]32C)cc1Br")
20
>>> number("CC[C@@H]1[C@@H]2[C@H]3OC(C=C=CBr)C[C@H]3O[C@]2(O)[C@@H](Br)C[C@H]1Br (relative stereo)")
20

// next item, LC50 requested
Note to self: LC50 recorded for CC(C)=CCCC(C)C1(O)CCC2(C)C(Br)CCC(C)(O)C2C1 (stereo not shown) was 9.6
